- Test system: purified recombinant BGL-GYP17
- measurement_notes: Effects of metal ions and chemical agents on ginsenoside glycosidase activity (pNPGlc substrate)
- Assay type: biochemical, Terrabacter ginsenosidimutans Gsoil 3082
- experimental_parameters: 1 mM metal ion or reagent, 30 min at room temperature, pNPGlc substrate; 100% = 44.3 U/mg
Provide the reported Relative activity (%) of each item.
Please make sure the unit comes right after the number.

compound="OCCS [Beta-Mercaptoethanol]" measurement="98.4 ± 4.89%"
compound="O[C@@H](CS)[C@@H](O)CS [DTT]" measurement="96.7 ± 5.59%"
compound="O=C(O)CN(CCN(CC(=O)O)CC(=O)O)CC(=O)O [EDTA]" measurement="98.6 ± 6.49%"
compound="[Cl-].[Cl-].[Zn+2] [ZnCl2]" measurement="92.8 ± 4.72%"
compound="[Cl-].[K+] [KCl]" measurement="102.7 ± 4.65%"

Hi, could you look up Relative activity (%) for each item in my list?
1. [Cl][Mn][Cl] [MnCl2]
2. [Cl][Cu][Cl] [CuCl2]

stdout:
1. 101.1 ± 5.45%
2. 84.7 ± 4.48%

Could I get Relative activity (%) for every one of these entries?
1. [Cl-].[Cl-].[Mg+2] [MgCl2]
2. [Ca+2].[Cl-].[Cl-] [CaCl2]
3. CCCCCCCCCCCCOS(=O)(=O)[O-].[Na+] [SDS]

stdout:
["94.8 ± 5.10%", "91.8 ± 4.59%", "94.8 ± 6.98%"]

---

- System: purified recombinant BGL-GYP17
- measurement_notes: Effects of metal ions and chemical agents on ginsenoside glycosidase activity (pNPGlc substrate)
- Type: biochemical, Terrabacter ginsenosidimutans Gsoil 3082
- experimental_parameters: 10 mM metal ion or reagent, 30 min at room temperature, pNPGlc substrate; 100% = 44.3 U/mg
property: Relative activity (%)
Answers are plain numbers, in %.

Solved entries (count: 6):
chemical_string=[Cl-].[Cl-].[Mg+2] property="Relative activity (%)" units_label=% measurement=95.2
chemical_string=[Cl-].[K+] property="Relative activity (%)" units_label=% measurement=96.2
chemical_string=[Ca+2].[Cl-].[Cl-] property="Relative activity (%)" units_label=% measurement=101.5
chemical_string=OCCS property="Relative activity (%)" units_label=% measurement=102.5
chemical_string=[Cl][Cu][Cl] property="Relative activity (%)" units_label=% measurement=71.7
chemical_string=O=C(O)CN(CCN(CC(=O)O)CC(=O)O)CC(=O)O property="Relative activity (%)" units_label=% measurement=96.6

# compound `CCCCCCCCCCCCOS(=O)(=O)[O-].[Na+]` ; its Relative activity (%) = 2.7

---

- Tested on: recombinant Bgl-gyp17
- measurement_notes: Enzymatic hydrolysis of PPD-type ginsenosides (TLC, HPLC, NMR)
- Type: biochemical, Terrabacter ginsenosidimutans Gsoil 3082
- experimental_parameters: 0.2 U enzyme, 50 mM sodium phosphate pH 7.0, 37° C.; hydrolysis of glucoses at C-3
property: conversion of the ginsenoside by the enzyme (product)

compound="CC(C)=CCC[C@](C)(O[C@@H]1O[C@H](CO[C@@H]2O[C@H](CO)[C@@H](O)[C@H](O)[C@H]2O)[C@@H](O)[C@H](O)[C@H]1O)[C@H]1CC[C@]2(C)[C@@H]1[C@H](O)C[C@@H]1[C@@]3(C)CC[C@H](O[C@@H]4O[C@H](CO)[C@@H](O)[C@H](O)[C@H]4O)C(C)(C)[C@@H]3CC[C@]12C [gyp XVII, gypenoside XVII]" measurement=C—K
compound="CC(C)=CCC[C@](C)(O[C@@H]1O[C@H](CO[C@@H]2O[C@H](CO)[C@@H](O)[C@H](O)[C@H]2O)[C@@H](O)[C@H](O)[C@H]1O)[C@H]1CC[C@]2(C)[C@@H]1[C@H](O)C[C@@H]1[C@@]3(C)CC[C@H](O[C@@H]4O[C@H](CO)[C@@H](O)[C@H](O)[C@H]4O[C@@H]4O[C@H](CO)[C@@H](O)[C@H](O)[C@H]4O)C(C)(C)[C@@H]3CC[C@]12C [ginsenoside Rb1]" measurement=C—K
